measurement_target: monkey DLL3 on CHO-K1-cyno DLL3 cells (cynomolgus monkey)
Sequence (chain, as listed by the source limits assumed): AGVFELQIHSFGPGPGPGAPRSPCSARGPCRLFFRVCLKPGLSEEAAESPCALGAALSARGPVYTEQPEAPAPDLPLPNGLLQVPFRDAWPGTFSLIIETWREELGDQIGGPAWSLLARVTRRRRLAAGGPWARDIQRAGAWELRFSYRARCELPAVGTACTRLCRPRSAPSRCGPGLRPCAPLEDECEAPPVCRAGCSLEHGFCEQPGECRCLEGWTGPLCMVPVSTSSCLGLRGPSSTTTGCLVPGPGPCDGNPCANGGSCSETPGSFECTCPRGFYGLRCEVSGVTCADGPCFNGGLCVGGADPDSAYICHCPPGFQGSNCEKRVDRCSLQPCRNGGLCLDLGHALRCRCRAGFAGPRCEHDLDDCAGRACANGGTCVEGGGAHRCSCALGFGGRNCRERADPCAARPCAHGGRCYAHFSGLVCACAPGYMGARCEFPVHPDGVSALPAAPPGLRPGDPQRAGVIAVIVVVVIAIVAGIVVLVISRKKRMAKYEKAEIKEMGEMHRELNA
measurement_protocol: FACS, CHO-K1-cyno DLL3 cells, 0.00128 nM antibody
assay_metric: MFI (MFI)
Express your answer in MFI, writing the number without its unit.

Query block: Quick one: MFI for Hab008L1H5-hFc (scFv, part only; not given: VL-VH linker and human IgG1 Fc, V domains shown, not shown: another chain or arm of the molecule; a dimerising Fc or GST; small tags and cut ends) VL: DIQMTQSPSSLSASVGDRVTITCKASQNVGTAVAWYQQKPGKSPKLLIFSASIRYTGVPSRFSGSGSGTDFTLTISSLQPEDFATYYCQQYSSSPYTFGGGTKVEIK VH: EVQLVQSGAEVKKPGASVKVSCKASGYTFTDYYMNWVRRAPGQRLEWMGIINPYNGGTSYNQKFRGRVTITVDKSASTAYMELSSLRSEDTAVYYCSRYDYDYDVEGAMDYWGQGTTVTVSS ?
Result block: 116
